Provide the recorded % Change in SG for the entries that follow.
- Tested on: alloxan-induced diabetic mice
- assay.overview: In vivo oral hypoglycemic activity, sub-acute study
- reported.conditions: 7 days rest period after 21 days of treatment, 200 μg/kg orally
Give bare numbers, in %.

Reference set (3 entries):
* CC1(C)CC[C@]2(C(=O)O)CC[C@]3(C)C(=CC[C@@H]4[C@@]5(C)CC[C@H](O)C(C)(C)[C@@H]5CC[C@]43C)[C@@H]2C1 [Oleanolic acid, reference compound] | −30.32
* CCc1ccc(CCOc2ccc(CC3SC(=O)NC3=O)cc2)nc1 (stereo not shown) [Pioglitazone, reference compound] | −43.45
* COC(=O)[C@]12CCC(C)(C)C[C@H]1C1=CC[C@@H]3[C@@]4(C)CCC(=O)C(C)(C)[C@@H]4CC[C@@]3(C)[C@]1(C)CC2 | −81.20

Lab note: next compound to report on.
Need % Change in SG of C[C@H]1O[C@H](O[C@H]2[C@H](O)[C@@H](O)[C@@H](O[C@H]3[C@H](O)[C@@H](O)C(O)O[C@@H]3CO)O[C@@H]2CO)[C@H](O)[C@@H](O)[C@@H]1N[C@H]1C=C(CO)[C@@H](O)[C@H](O)[C@H]1O (stereo partly shown) [Acarbose, reference compound] , thanks.
−27.65

###

Exercise: for every item that follows, state its recorded % Change in SG.
- Tested on: alloxan-induced diabetic mice
- assay.overview: In vivo oral hypoglycemic activity, sub-acute study
- reported.conditions: 7 day, 200 μg/kg body weight orally daily
Numbers only, in %.

- C[C@H]1O[C@H](O[C@H]2[C@H](O)[C@@H](O)[C@@H](O[C@H]3[C@H](O)[C@@H](O)C(O)O[C@@H]3CO)O[C@@H]2CO)[C@H](O)[C@@H](O)[C@@H]1N[C@H]1C=C(CO)[C@@H](O)[C@H](O)[C@H]1O (stereo partly shown) [Acarbose, reference compound]: −18.29
- CC1(C)CC[C@]2(C(=O)O)CC[C@]3(C)C(=CC[C@@H]4[C@@]5(C)CC[C@H](O)C(C)(C)[C@@H]5CC[C@]43C)[C@@H]2C1 [Oleanolic acid, reference compound]: −10.56
- CCc1ccc(CCOc2ccc(CC3SC(=O)NC3=O)cc2)nc1 (stereo not shown) [Pioglitazone, reference compound]: −11.23

Note: attention shifts to another entry.
Entry `COC(=O)[C@]12CCC(C)(C)C[C@H]1C1=CC[C@@H]3[C@@]4(C)CCC(=O)C(C)(C)[C@@H]4CC[C@@]3(C)[C@]1(C)CC2` has what % Change in SG?
−59.76

###

- Test system: alloxan-induced diabetic mice
- assay.overview: In vivo oral hypoglycemic activity, sub-acute study
- reported.conditions: 14 day, 200 μg/kg body weight orally daily
observed.property: % Change in SG (%)
One number for each entry, in %.

Known results for compounds:
* CCc1ccc(CCOc2ccc(CC3SC(=O)NC3=O)cc2)nc1 (stereo not shown) [Pioglitazone, reference compound] | −18.34
* COC(=O)[C@]12CCC(C)(C)C[C@H]1C1=CC[C@@H]3[C@@]4(C)CCC(=O)C(C)(C)[C@@H]4CC[C@@]3(C)[C@]1(C)CC2 | −68.78
* CC1(C)CC[C@]2(C(=O)O)CC[C@]3(C)C(=CC[C@@H]4[C@@]5(C)CC[C@H](O)C(C)(C)[C@@H]5CC[C@]43C)[C@@H]2C1 [Oleanolic acid, reference compound] | −20.35

Any idea what % Change in SG was measured for C[C@H]1O[C@H](O[C@H]2[C@H](O)[C@@H](O)[C@@H](O[C@H]3[C@H](O)[C@@H](O)C(O)O[C@@H]3CO)O[C@@H]2CO)[C@H](O)[C@@H](O)[C@@H]1N[C@H]1C=C(CO)[C@@H](O)[C@H](O)[C@H]1O (stereo partly shown) [Acarbose, reference compound] ?
−24.55

The reported numbers originate from patent US9969768B1.
